Assay: Binding affinity to Mycobacterium tuberculosis RpsA Ala438 deleted mutant C-terminal domain (285 to 476 residues) assessed as dissociation constant by fluorescence quenching titration based analysis
// NB: equality with 5 µM counts as false (0); only Kd strictly below is true (1)

>>> df
                                   compound  qualitative_label
0  Cc1cccc(CNC(=O)COc2cc(O)c3c(=O)cc(-c4ccccc4)oc3c2)c1          false (0)
1         CCOC(=O)CSc1nc2nc[nH]c2c(=O)[nH]1           true (1)
2  Cc1cccc(CNC(=O)CSc2nc3nc[nH]c3c(=O)[nH]2)c1           true (1)
3  CC(Sc1nc(N)cc(N)n1)C(=O)O (configuration not stated)           true (1)
4  Cc1ccc(CNC(=O)COc2cc(O)c3c(=O)cc(-c4ccccc4)oc3c2)cc1           true (1)
5  Cc1ccc(CNC(=O)CSc2nc3nc[nH]c3c(=O)[nH]2)cc1          false (0)

Origin of measurements: ChEMBL document CHEMBL4765294
